Data provenance: patent US5977326A

TEST_SUMMARY: In vivo antinociceptive activity (A.U.C.), animal pain model
RUN_CONDITIONS: 2 mg; area under the time effect curve
Is In vivo antinociceptive (A.U.C.) at least 200? Then 1. If not, 0.

Answered cases to consult:
1) CN1CC[C@]23c4c5ccc(O)c4O[C@H]2[C@@H](O[C@@H]2O[C@H](C(=O)O)[C@@H](O)[C@H](O)[C@H]2O)CC[C@H]3[C@H]1C5 :: 1
2) CN1CC[C@]23c4c5ccc(O)c4O[C@H]2[C@@H](O[C@@H]2O[C@H](C(=O)O)[C@@H](O)[C@H](O)[C@H]2O)C=C[C@H]3[C@H]1C5 [Compound 2, morphine-6-glucuronide] :: 1
3) O=C(O)[C@H]1O[C@@H](O[C@H]2C=C[C@H]3[C@H]4Cc5ccc(O)c6c5[C@@]3(CCN4)[C@H]2O6)[C@H](O)[C@@H](O)[C@@H]1O :: 0

Could you now consider this next compound?
Reported In vivo antinociceptive (A.U.C.) at or above 200? "CN1CC[C@]23c4c5ccc(O)c4O[C@H]2[C@@H](O)C=C[C@H]3[C@H]1C5"
1
